# Tested on: biotinyl-Met-oxazolone
# Assay Comment: self-aminoacylation, catalytic enhancement (BMO) (fold over background); higher = more active; k-Seq, kA / k0A0; sequences stand for … in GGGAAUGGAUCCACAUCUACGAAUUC…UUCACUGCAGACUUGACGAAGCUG
Variants at the floor of the assay were thinned out.
Mark label 1 for reported self-aminoacylation of 4 or greater; mark label 0 for anything smaller.

Polymer Sequence | Assigned Label
AUUCACCUAGGUCAACGGUUG [Fam2.2 aminoacylation ribozyme variant] | label 0
AUUUCCGUGGUCAUCGAGUGA [Fam2.1 aminoacylation ribozyme variant] | label 1
ACUACCCUGGUCAUCGAGUUA [Fam2.1 aminoacylation ribozyme variant] | label 1
AUUACCCAGGUCCUCGAGUGA [Fam2.1 aminoacylation ribozyme variant] | label 0
AUUCACCUAGGUAAUCGGGUU [Fam2.2 aminoacylation ribozyme variant] | label 0
AAGUUUGCUAAUAGUUGCAAC [Fam3.1 aminoacylation ribozyme variant] | label 0

(Q) Could you verify whether the entry CUUACCCUGGUCAUCGAGUUA [Fam2.1 aminoacylation ribozyme variant] shows self-aminoacylation of no less than 4?
(A) label 0

(Q) Could you verify whether the entry AUUCACCUAGUUCAUCGCGUG [Fam2.2 aminoacylation ribozyme variant] shows self-aminoacylation of no less than 4?
(A) label 1

(Q) Could you verify whether the entry AUUACCCUGGUCAUUAAGUGA [Fam2.1 aminoacylation ribozyme variant] shows self-aminoacylation of no less than 4?
(A) label 1

(Q) Could you verify whether the entry AUUCACCCAUGUCAUCGGGUG [Fam2.2 aminoacylation ribozyme variant] shows self-aminoacylation of no less than 4?
(A) label 1

----------
# System: biotinyl-Val-oxazolone
# Assay Comment: self-aminoacylation, catalytic enhancement (BVO) (fold over background); higher = more active; k-Seq, kA / k0A0; sequences stand for … in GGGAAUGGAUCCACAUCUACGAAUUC…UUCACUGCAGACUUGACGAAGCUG
Variants at the floor of the assay were thinned out.
Parameter: self-aminoacylation
A bare number is all that is needed in reply.

Solved entries (count: 5):
Polymer Sequence | self-aminoacylation
AAGUUUGCUAAUGGUCGCGAG [Fam3.1 aminoacylation ribozyme variant] | 1.27
AAGUAUGCUAAUAAUCGCAAG [Fam3.1 aminoacylation ribozyme variant] | 1.05
UUACUUCAAACAACCGGUCUG [Fam1A.1 aminoacylation ribozyme variant] | 1.15
AUUCACCUAGGUCCUCGAGUG [Fam2.2 aminoacylation ribozyme variant] | 1.38
CGACUUCAAACAAUCGGUAUG [Fam1A.1 aminoacylation ribozyme variant] | 1.28

(Q) Entry AUGGCCCUGGUCAUCGAGUGA [Fam2.1 aminoacylation ribozyme variant] has what self-aminoacylation?
(A) 29.1

(Q) Entry CGACACUACAAGCAAUCGGUC [Fam1B.1 aminoacylation ribozyme variant] has what self-aminoacylation?
(A) 1

(Q) Entry AAGGUUGCUAAUAUUCGCAAG [Fam3.1 aminoacylation ribozyme variant] has what self-aminoacylation?
(A) 1.26

(Q) Entry CCGCACUUCAAGCACUCGGUC [Fam1B.1 aminoacylation ribozyme variant] has what self-aminoacylation?
(A) 1.79

(Q) Entry GUUCACCUAGGUCCUCGGGUG [Fam2.2 aminoacylation ribozyme variant] has what self-aminoacylation?
(A) 4.16

(Q) Entry AUUACCCUGGUCUUCGCGUGA [Fam2.1 aminoacylation ribozyme variant] has what self-aminoacylation?
(A) 6.16

(Q) Entry AUUCACCUAGGUCAUAGAGUG [Fam2.2 aminoacylation ribozyme variant] has what self-aminoacylation?
(A) 2.08

(Q) Entry GUUACCCUCGUCAUCGAGUGA [Fam2.1 aminoacylation ribozyme variant] has what self-aminoacylation?
(A) 2.31

(Q) Entry CUACUUCAAACAAUAGGUCGG [Fam1A.1 aminoacylation ribozyme variant] has what self-aminoacylation?
(A) 0.693

----------
# Test system: biotinyl-Leu-oxazolone
# Assay Comment: self-aminoacylation, catalytic enhancement (BLO) (fold over background); higher = more active; k-Seq, kA / k0A0; sequences stand for … in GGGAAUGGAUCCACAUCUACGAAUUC…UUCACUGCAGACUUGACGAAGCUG
Variants at the floor of the assay were thinned out.
Binning of self-aminoacylation into classes: low end (below 2), middle (2 to below 5), high end (5 or more)

Polymer Sequence | Assigned Label
GUUCACCUAGGCCAUCGGGUG [Fam2.2 aminoacylation ribozyme variant] | middle

(Q) Category lookup for the sequence CCACAUUUCAAGCAACCGGUC [Fam1B.1 aminoacylation ribozyme variant]
(A) low end

(Q) Category lookup for the sequence CCACACUUCGAGCAAUCGGGC [Fam1B.1 aminoacylation ribozyme variant]
(A) middle

(Q) Category lookup for the sequence CUACUUCACACAAUCGGCCUG [Fam1A.1 aminoacylation ribozyme variant]
(A) low end

(Q) Category lookup for the sequence AUUACCCUGGGCAUCAAGUGA [Fam2.1 aminoacylation ribozyme variant]
(A) low end

(Q) Category lookup for the sequence AUUAGCCUGGUCAUCCAGUGA [Fam2.1 aminoacylation ribozyme variant]
(A) middle

(Q) Category lookup for the sequence AUUACCCUGGUCUCCGAGUGA [Fam2.1 aminoacylation ribozyme variant]
(A) high end

----------
Entries annotated with measured self-aminoacylation
# System: biotinyl-Phe-oxazolone
# Assay Comment: self-aminoacylation, catalytic enhancement (BFO) (fold over background); higher = more active; k-Seq, kA / k0A0; sequences stand for … in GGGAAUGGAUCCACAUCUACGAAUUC…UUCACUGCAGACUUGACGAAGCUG
This sample holds only a part of the variants without activity.

Solved entries (count: 5):
Polymer Sequence | Measured On | self-aminoacylation
AUUCACCUAAGUCUUCGGGUG [Fam2.2 aminoacylation ribozyme variant] | biotinyl-Phe-oxazolone | 33.4
AUUACCCUCGUCACCGAGUGA [Fam2.1 aminoacylation ribozyme variant] | biotinyl-Phe-oxazolone | 21.2
CUACUUCAUACAAUCUGUCUG [Fam1A.1 aminoacylation ribozyme variant] | biotinyl-Phe-oxazolone | 0.66
CAACUUCAAACAAUCGGUCUA [Fam1A.1 aminoacylation ribozyme variant] | biotinyl-Phe-oxazolone | 26.4
CUACUGCAAACAAUCGGUCUU [Fam1A.1 aminoacylation ribozyme variant] | biotinyl-Phe-oxazolone | 1.06

(Q) Entry CUACUUCAAACAAUGGGCCUG [Fam1A.1 aminoacylation ribozyme variant] has what self-aminoacylation?
(A) 1.67

(Q) Entry CUACAUCAAACACUCGGUCUG [Fam1A.1 aminoacylation ribozyme variant] has what self-aminoacylation?
(A) 3.01

(Q) Entry CUACUUCGAACAAUCGGUGUG [Fam1A.1 aminoacylation ribozyme variant] has what self-aminoacylation?
(A) 0.861

(Q) Entry ACACACUUCAAGCAAUCGAUC [Fam1B.1 aminoacylation ribozyme variant] has what self-aminoacylation?
(A) 2.02

(Q) Entry AAGUUUUCUAACAGUCGCAAG [Fam3.1 aminoacylation ribozyme variant] has what self-aminoacylation?
(A) 3.07

(Q) Entry AUUCACCUAGAUCAUUGGGUG [Fam2.2 aminoacylation ribozyme variant] has what self-aminoacylation?
(A) 18

(Q) Entry AUUACCCUGGUCCUGGAGUGA [Fam2.1 aminoacylation ribozyme variant] has what self-aminoacylation?
(A) 10.7

(Q) Entry AAUCACCUAGAUCAUCGGGUG [Fam2.2 aminoacylation ribozyme variant] has what self-aminoacylation?
(A) 9.55

(Q) Entry AAGUUUGGUAAUAGUCGCAAA [Fam3.1 aminoacylation ribozyme variant] has what self-aminoacylation?
(A) 1.72

(Q) Entry CCACACUUCGAGCCAUCGGUC [Fam1B.1 aminoacylation ribozyme variant] has what self-aminoacylation?
(A) 1.27

----------
# Test system: biotinyl-Phe-oxazolone
# Assay Comment: self-aminoacylation, catalytic enhancement (BFO) (fold over background); higher = more active; k-Seq, kA / k0A0; sequences stand for … in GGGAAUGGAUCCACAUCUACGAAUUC…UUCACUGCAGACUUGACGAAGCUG
Variants at the floor of the assay were thinned out.
Parameter: self-aminoacylation
A bare number is all that is needed in reply.

Solved entries (count: 2):
Polymer Sequence | Reported Measurement
AAGUAUGCUAAUAGUCGCAUG [Fam3.1 aminoacylation ribozyme variant] | 1.66
CUACUUCAAACACUCGGCCUG [Fam1A.1 aminoacylation ribozyme variant] | 1.38

(Q) # value lookup — system biotinyl-Phe-oxazolone, readout self-aminoacylation, item AUUCACAUACGUCAUCGGGUG [Fam2.2 aminoacylation ribozyme variant]
(A) 53.4

(Q) # value lookup — system biotinyl-Phe-oxazolone, readout self-aminoacylation, item CCACACUUCAAGCACCCGGUC [Fam1B.1 aminoacylation ribozyme variant]
(A) 0.709

----------
# Test system: biotinyl-Leu-oxazolone
# Assay Comment: self-aminoacylation, catalytic enhancement (BLO) (fold over background); higher = more active; k-Seq, kA / k0A0; sequences stand for … in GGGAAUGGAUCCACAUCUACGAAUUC…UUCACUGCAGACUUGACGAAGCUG
Fewer inactive variants are shown than the library holds.
Entries annotated with measured self-aminoacylation
A bare number is all that is needed in reply.

Solved entries (count: 4):
Polymer Sequence | Reported Measurement
AUUACCCUGGUCAUCUAGUCA [Fam2.1 aminoacylation ribozyme variant] | 0.616
CAACUUCAAACAAUCGGUCGG [Fam1A.1 aminoacylation ribozyme variant] | 2.79
AUUCACCUACGUCAUCGGGGG [Fam2.2 aminoacylation ribozyme variant] | 2.68
AAGUAUGCUGAUAGUCGCAAG [Fam3.1 aminoacylation ribozyme variant] | 1.91

(Q) Entry AUUGUCCUGGUCAUCGAGUGA [Fam2.1 aminoacylation ribozyme variant] has what self-aminoacylation?
(A) 8.83

(Q) Entry AUUUUUGCUAAUAGUCGCAAG [Fam3.1 aminoacylation ribozyme variant] has what self-aminoacylation?
(A) 0.994

(Q) Entry AUUCUCCUGGGUCAUCGGGUG [Fam2.2 aminoacylation ribozyme variant] has what self-aminoacylation?
(A) 10.8

(Q) Entry GAGUAUGCUAAUAGUCGCAAG [Fam3.1 aminoacylation ribozyme variant] has what self-aminoacylation?
(A) 1.45

(Q) Entry AUCCACCUAGUUCAUCGGGUG [Fam2.2 aminoacylation ribozyme variant] has what self-aminoacylation?
(A) 4.83

(Q) Entry AGGUUUGCUAGUAGUCGCAAG [Fam3.1 aminoacylation ribozyme variant] has what self-aminoacylation?
(A) 0.945

(Q) Entry CUACUUAAAACAAUCCGUCUG [Fam1A.1 aminoacylation ribozyme variant] has what self-aminoacylation?
(A) 0.756

(Q) Entry CCACACUUAAAGCAUUCGGUC [Fam1B.1 aminoacylation ribozyme variant] has what self-aminoacylation?
(A) 1.29

(Q) Entry UAGGUUGCUAAUAGUCGCAAG [Fam3.1 aminoacylation ribozyme variant] has what self-aminoacylation?
(A) 1.15
